B1: PBXIP1 (parent)
chain: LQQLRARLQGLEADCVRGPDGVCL

variants of: B1; assay: protein stability index of a GFP-peptide fusion (GPS, HEK-293T) (PSI 1-6); higher = more stable; settings: c terminus: a fixed tail appended;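 also: lentivirally expressed fusions sorted by FACS into six bins by GFP to DsRed ratio, PSI derived from sequencing read proportions per bin multiplied by bin number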
Measured protein stability index, listed per entry for reference.
Just the number, please.

Examples from the recorded data:
Q2I; 1.3
G21K; 3.18
C23E; 2.98
G21A; 1.28
D20A; 2.03
R5K; 2.2

`G10D` has a reported protein stability index of 2.35

# protein stability index of `G18C` = 2.23

Short answer for `L1I` : protein stability index was 1.72

Quick note, protein stability index for `Q9T` landed at 1.04

protein stability index reported for this variant `P19Y` : 2.13

So for `D20M` , the logged protein stability index turned out to be 1.53

Sure, the documented protein stability index for `P19F` is 1.92

Note to self: protein stability index recorded for `D20K` was 2.08

Item: `R7H` | protein stability index: 2.91

protein stability index reading for `G18W` : 2.54

The recorded protein stability index for `C15A` is 2.6

GET /value?item= `R5H` &field=protein stability index returns 2.61
